- Test system: Plasmodium falciparum
- Assay Comment: NOVARTIS: Inhibition of Plasmodium falciparum W2 (drug-resistant) proliferation in erythrocyte-based infection assay
- Type: functional, organism-based
- Experimental Context: Plasmodium falciparum, W2; read-out: EC50
Bridge positions count the residues as written; N and C are the ends. Square brackets hold non-standard residues; d marks the D form. Peptide text beside a SMILES is read from it.

# Compound, Result Units, Relation Operator, EC50
records = [
    ("CCOc1cc(C2CC(=O)NC3=C2C(=O)CC(c2ccc(OC)cc2)C3)cc(Cl)c1O (stereo unspecified)", "nM", "=", 285),
    ("COC(=O)C1=C(C)NC2=C(C(=O)CC(c3ccc(OC)c(OC)c3)C2)C1c1ccc([N+](=O)[O-])cc1 (stereo unspecified)", "nM", "=", 704),
    ("CCC(COC)NC(=O)c1cn(C2CCCCC2)cc(C(=O)NC(C)(C)C)c1=O (stereo unspecified)", "nM", "=", 1980),
    ("CCCCNC(=O)C(CC)Sc1nnc(-c2ccc(C)cc2)c(-c2ccc(C)cc2)n1 (stereo unspecified)", "nM", "=", 2050),
    ("Cc1nc(-c2ccncc2)nc(NCCNc2ccc(C(F)(F)F)cn2)c1Cl", "nM", ">", 1250),
    ("C=CCSc1nnc2c(n1)[nH]c1ccc(OCC)cc12", "nM", "=", 549),
    ("Nc1c(C(=O)Nc2ccc(C3=NCCN3)cc2)cccc1C(=O)Nc1ccc(C2=NCCN2)cc1", "nM", "=", 107),
    ("CC(C)NCC(O)Cn1c2ccc(Br)cc2c2cc(Br)ccc21 (stereo unspecified)", "nM", "=", 54.4),
    ("COc1ccc(-c2csc(Nc3cccc(Cl)c3C)n2)cc1OC", "nM", "=", 355),
    ("Cc1ccccc1C=NNc1nc2ccccc2[nH]1", "nM", "=", 249),
    ("CCN1C(=S)NC2c3cc(C)ccc3OC13CCCC23 (stereo unspecified)", "nM", "=", 111),
    ("CC(C)C[C@@H]1NC(=O)[C@@H](CC(C)C)NC(=O)[C@H](C(C)C)NC(=O)[C@H]2CSSC[C@@H](NC1=O)C(=O)N2 (cyclo(L[dC][dC]V[dL]); disulfide 2-3)", "nM", "=", 164),
    ("Cc1cc(NC(=O)/C=C/c2ccccc2Cl)ccc1Br", "nM", "=", 1810),
    ("COc1ccccc1CNC(=O)c1nn(-c2ccc(Cl)cc2)c(=O)c2ccccc12", "nM", "=", 2820),
    ("Cc1ccc2cc(C)c(Nc3ccc(Cl)cc3)nc2c1", "nM", "=", 570),
    ("CC1(C)CC(=O)C(=CNc2nc3c(s2)CCc2c-3cnn2-c2ccccc2)C(=O)C1", "nM", ">", 1250),
    ("CC(C)c1ccc(NC(=O)c2ccc(NCCCN(C)Cc3ccccc3)c([N+](=O)[O-])c2)cc1", "nM", "=", 3200),
    ("CCC(C)NCC(O)(c1ccc(Cl)cc1)c1ccc(Cl)cc1 (stereo unspecified)", "nM", "=", 184),
    ("CC(C)Sc1nc2c(c(=O)n1Cc1ccco1)C1(CCCCC1)Cc1ccccc1-2", "nM", ">", 12500),
    ("C[n+]1c2n(c3ccccc31)N=C(c1ccccc1)CS2", "nM", "=", 347),
    ("OC1(c2cccc3ccccc23)CCN(Cc2ccccc2)C1 (stereo unspecified)", "nM", "=", 148),
]

* * *

- Tested on: Plasmodium falciparum
- Assay Comment: NOVARTIS: Inhibition of Plasmodium falciparum 3D7 (drug-susceptible) proliferation in erythrocyte-based infection assay
- Format: functional, organism-based
- Experimental Context: Plasmodium falciparum, 3D7
pEC50: −log10 of the molar value.
Readings of pEC50 for the listed molecules
Metric: pEC50

# Molecule, Relation Operator, Value Reported
data = [
    ("CCOC(=O)C1=C(CC)NC2=C(C(=O)CCC2)C1c1ccc(OC)c(Br)c1 (stereo not given)", "=", 5.97),
    ("COc1ccc(N2C(=O)c3cccnc3C2=O)cc1", "=", 5.70),
    ("Cc1ccc2c(c1)c(-c1ccccc1)c(-c1ccccc1)n2CC(O)CN1CCN(Cc2ccccc2)CC1 (stereo not given)", "=", 6.08),
    ("CC(C(=O)NN=C1CCN(C)CC1)N(c1ccccc1)S(C)(=O)=O (stereo not given)", "<", 5.90),
    ("CCc1cc2c3c(c1)C1(C(=O)N3C(C)(C)CC2C)C(C#N)=C(N)Oc2cc(C)oc(=O)c21 (stereo not given)", "=", 5.83),
    ("CC(C)CN(C(C)C(=O)NC(CN1CCCC1)c1ccccc1)S(=O)(=O)Cc1ccccc1 (stereo not given)", "=", 7.22),
    ("O=C(Nc1ccccc1)/C(=C\\c1ccncc1)NC(=O)c1ccccc1", "<", 5.90),
    ("CN(C)[C@@H]1CCN(Cc2cccc(Cl)c2)C[C@@H]1CCC(=O)NCCCN1CCOCC1", "=", 6.23),
    ("CN(C)c1ccc(N=C2NC(=O)/C(=C/c3ccc(Cl)cc3)S2)cc1", "=", 6.09),
    ("Cc1csc(NC(=O)C2c3ccccc3C(=O)N(CC(C)C)C2c2cccs2)n1 (stereo not given)", "=", 6.21),
]

* * *

- System: Plasmodium falciparum
- Assay Comment: NOVARTIS: Inhibition of Plasmodium falciparum 3D7 (drug-susceptible) proliferation in erythrocyte-based infection assay
- Type: functional, organism-based
- Experimental Context: Plasmodium falciparum, 3D7
# strict inequality: EC50 < 700 nM yields label 1, everything else yields label 0

# Compound, Target Or System, Label Class
records = [
    ("O=C1[C@H]2Cc3c([nH]c4ccccc34)C(CCc3ccccc3)N2C(=O)CN1CCc1c[nH]c2ccccc12 (stereo partly specified)", "Plasmodium falciparum", "label 0"),
    ("Cc1c(Cl)cccc1NC(=O)C1C(C(=O)O)C2C=CC1C21CC1 (stereo unspecified)", "Plasmodium falciparum", "label 0"),
    ("CC(=O)C1=C(O)C(=O)N(c2ccc(Br)cn2)C1c1ccccc1[N+](=O)[O-] (stereo unspecified)", "Plasmodium falciparum", "label 0"),
    ("CCC(C)NC(=O)CSc1nnc(-c2cccnc2)n1-c1ccc(Cl)cc1 (stereo unspecified)", "Plasmodium falciparum", "label 0"),
    ("CCNC(=O)NS(=O)(=O)c1cnccc1Sc1cccc(C)c1", "Plasmodium falciparum", "label 0"),
    ("COc1ccc(-c2c[n+](CC(=O)O[C@H]3C[C@H](C)CC[C@@H]3C(C)C)c3n2CCCCC3)cc1", "Plasmodium falciparum", "label 1"),
    ("CCNC(=S)NC1CC2CCCC(C1)N2CCc1ccccc1 (stereo unspecified)", "Plasmodium falciparum", "label 0"),
    ("CC(C)CNC(=O)c1cnc(NCCCN(C)C)nc1NCC1CCCCC1", "Plasmodium falciparum", "label 1"),
    ("CN(C)c1ccc(NC(=O)c2cccnc2C(=O)O)cc1", "Plasmodium falciparum", "label 1"),
    ("CCCN(CC(=O)Nc1cc(C(C)(C)C)nn1-c1cccc(C)c1C)C(=O)C(C)(C)C", "Plasmodium falciparum", "label 0"),
    ("O=C1c2ccccc2-c2nnc(-c3ccc(Br)cc3)cc21", "Plasmodium falciparum", "label 0"),
    ("CCC(=O)Oc1ccccc1-c1nc2ccccn2c1NC(C)(C)CC(C)(C)C", "Plasmodium falciparum", "label 0"),
    ("COc1ccc(/C=C/C(=O)Nc2ccc3nc(N4CCN(C)CC4)cc(C)c3c2)cc1OC", "Plasmodium falciparum", "label 0"),
    ("O=C(c1c2c(nc3ccccc13)CCC2)N1CCc2ccccc21", "Plasmodium falciparum", "label 0"),
    ("CCCN(C(=O)C(=O)Nc1ccc2nc3n(c(=O)c2c1)CCCCC3)c1ccc(OCC)cc1", "Plasmodium falciparum", "label 1"),
    ("CCOC(=O)NN=CC=NNC(=O)OCC", "Plasmodium falciparum", "label 1"),
    ("CCC(CO)NCC(O)Cn1c2ccc(Cl)cc2c2cc(Cl)ccc21 (stereo unspecified)", "Plasmodium falciparum", "label 1"),
    ("CCn1c(C=CN(C(C)=O)c2ccccc2)[n+](CC)c2cc(Cl)ccc21", "Plasmodium falciparum", "label 0"),
    ("CC1=C(C(=O)Nc2ccc(C)cc2C)C(c2ccc([N+](=O)[O-])cc2)n2ncc(C(=O)Nc3ccc(F)cc3)c2N1 (stereo unspecified)", "Plasmodium falciparum", "label 1"),
    ("Cc1cc(-c2ccc(O)c(CN3CCCCC3CO)c2)c2ccccc2n1 (stereo unspecified)", "Plasmodium falciparum", "label 1"),
]

* * *

- Assay Comment: NOVARTIS: Cytotoxicity against human hepatocellular carcinoma cell line (Huh7)
- Assay type: toxicity, cell-based, Huh-7
- Experimental Context: Huh7 cells (hepatocellular carcinoma cell line)
Entries annotated with measured CC50

# Compound, CC50
rows = [
    ("C[N+](C)(CCCC(=O)c1ccc(C(=O)CCC[N+](C)(C)Cc2ccccc2Cl)cc1)Cc1ccccc1Cl", "> 100 µM"),
    ("COc1ccc(NC(=O)c2cccc([N+](=O)[O-])c2C)cc1", "> 100 µM"),
    ("COc1ccc(Nc2ccccc2NC(=O)c2cccc(N(C)C)c2)cc1", "> 100 µM"),
    ("O=C1NC(=S)N/C1=C\\C=C\\c1ccc([N+](=O)[O-])o1", "> 10 µM"),
    ("O=C(NCCCCNc1ccnc2cc(Cl)ccc12)C1CCCC1", "> 10 µM"),
    ("Cn1ccnc1C(=O)NNc1ncc(C(F)(F)F)cc1Cl", "1.15 µM"),
    ("Cc1ccnc(NC(c2ccncc2)c2ccc3cccnc3c2O)c1 (stereo not drawn)", "> 100 µM"),
    ("CN(CCCNc1ccnc2cc(Cl)ccc12)C(=O)c1ccccc1", "> 10 µM"),
    ("BrC(Br)(Br)c1ncc(-c2ccccc2)cn1", "> 10 µM"),
    ("CCN1CCN(Cc2c(O)ccc3c(=O)c(Oc4cc(C)cc(C)c4)c(C(F)(F)F)oc23)CC1", "> 100 µM"),
    ("Cc1cc(N2CCN(c3ccccn3)CC2)n2c(nc3ccccc32)c1C#N", "> 100 µM"),
    ("C=CCn1c(=O)c(C(=O)NCC[N+](CC)(CC)CC=C)c(O)c2ccccc21", "> 100 µM"),
    ("O=C1NC(=S)N/C1=C/c1ccc(C(F)(F)F)cc1", "> 2.88 µM"),
    ("Clc1ccc(CCNC2CCN(CCc3ccccc3)CC2)cc1", "9.6 µM"),
    ("ClC12CC3CC(C1)CC(n1nnc4ccccc41)(C3)C2", "> 10 µM"),
    ("CN1CCN(c2ccc(Nc3ccnc4ccccc34)cc2)CC1", "> 10 µM"),
    ("CCCCCCN(C(=O)COCc1ccccc1)C(C)c1nc2ccccc2c(=O)n1-c1cccc(Cl)c1C (stereo not drawn)", "> 10 µM"),
    ("Cc1cc(NC(=O)c2ccc(Br)cc2)no1", "> 10 µM"),
    ("Cc1ccc(C)c(N2C(=O)CC(Cc3ccc(Cl)cc3)C2=O)c1 (stereo not drawn)", "> 10 µM"),
    ("CCOC(=O)C1=C(C)NC2=C(C(=O)CC(c3ccc(OC)cc3)C2)C1c1cccc(F)c1 (stereo not drawn)", "> 100 µM"),
    ("CCCC1=[N+](CC(=O)c2ccc(C)cc2)CCn2c(C)ccc21", "> 10 µM"),
    ("CCN1C(C)=C(C)S/C1=C\\c1ccc2cc(C)ccc2[n+]1C", "5.72 µM"),
    ("O=C(Nc1nccs1)c1cc(-c2cccnc2)nc2ccc(Br)cc12", "> 100 µM"),
]
